The following molecules are listed with their measured IC50 values.
- System: normal human embryonic kidney cells (HEK-293)
- experiment: Sulforhodamine B (SRB) assay, normal cells HEK-293
- Format: cell-based
- conditions: HEK293, 48 h, normal cell line, mean ± SD (n = 3)

| molecule | unit_of_measure | IC50 |
| --- | --- | --- |
| CCOC(=O)C1=C(C(Cl)(Cl)Cl)NC(=O)NC1c1c2c(c(OC)c(OC)c1OC)-c1ccc(OC)c(=O)cc1[C@H](NC(C)=O)CC2 (stereo partly shown) | µM | 36.1 |
| CCOC(=O)C1=C(OCC)NC(=O)NC1c1c2c(c(OC)c(OC)c1OC)-c1ccc(OC)c(=O)cc1[C@H](NC(C)=O)CC2 (stereo partly shown) | µM | 26.6 |
| COC1=C(C(=O)C2CC2)C(c2c3c(c(OC)c(OC)c2OC)-c2ccc(OC)c(=O)cc2[C@@H](NC(C)=O)CC3)NC(=O)N1 (stereo partly shown) | µM | 39 |
| CCOC(=O)C1=C(C)NC(=S)NC1c1c2c(c(OC)c(OC)c1OC)-c1ccc(OC)c(=O)cc1[C@H](NC(C)=O)CC2 (stereo partly shown) | µM | 29.7 |

---

Catalogue of molecules with associated IC50
- Tested on: normal human embryonic kidney cells (HEK-293)
- experiment: Sulforhodamine B (SRB) assay, normal cells HEK-293
- Type: cell-based
- conditions: HEK293, 48 h, normal cell line, mean ± SD (n = 3)
readout_type: IC50 (µM)

| molecule | readout_type | unit_of_measure | recorded_number |
| --- | --- | --- | --- |
| CCOC(=O)C1=C(C)NC(=N)NC1c1c2c(c(OC)c(OC)c1OC)-c1ccc(OC)c(=O)cc1[C@H](NC(C)=O)CC2 (stereo partly drawn) | IC50 | µM | 38.3 |
| CCOC(=O)C1=C(C(F)(F)C(F)(F)F)NC(=O)NC1c1c2c(c(OC)c(OC)c1OC)-c1ccc(OC)c(=O)cc1[C@@H](NC(C)=O)CC2 (stereo partly drawn) | IC50 | µM | 15.8 |
| CCOC(=O)C1=C(C(F)(F)C(F)(F)F)NC(=O)NC1c1c2c(c(OC)c(OC)c1OC)-c1ccc(OC)c(=O)cc1[C@H](NC(C)=O)CC2 (stereo partly drawn) | IC50 | µM | 17.8 |
| COc1c(OC)c2c(c(C3NC(=O)NC(C)=C3C(=O)Oc3ccccc3)c1OC)CC[C@@H](NC(C)=O)c1cc(=O)c(OC)ccc1-2 (stereo partly drawn) | IC50 | µM | 35.6 |
| CCOC(=O)C1=C(c2cc(F)c(Cl)nc2Cl)NC(=O)NC1c1c2c(c(OC)c(OC)c1OC)-c1ccc(OC)c(=O)cc1[C@H](NC(C)=O)CC2 (stereo partly drawn) | IC50 | µM | 40.3 |
| COC1=C(C(=O)C2CC2)C(c2c3c(c(OC)c(OC)c2OC)-c2ccc(OC)c(=O)cc2[C@H](NC(C)=O)CC3)NC(=O)N1 (stereo partly drawn) | IC50 | µM | 39.5 |

---

- Tested on: A375 (melanoma)
- experiment: Sulforhodamine B (SRB) assay, A375
- Format: cell-based
- conditions: Homo sapiens, A-375, 48 h, read-out: IC50 (µM) A375

| compound | IC50 |
| --- | --- |
| COC1=C(C(=O)C2CC2)C(c2c3c(c(OC)c(OC)c2OC)-c2ccc(OC)c(=O)cc2[C@@H](NC(C)=O)CC3)NC(=O)N1 (stereo partly shown) | > 50 µM |
| CCOC(=O)C1=C(c2cc(F)c(Cl)nc2Cl)NC(=O)NC1c1c2c(c(OC)c(OC)c1OC)-c1ccc(OC)c(=O)cc1[C@H](NC(C)=O)CC2 (stereo partly shown) | > 50 µM |
| CCOC(=O)C1=C(C(F)(F)C(F)(F)F)NC(=O)NC1c1c2c(c(OC)c(OC)c1OC)-c1ccc(OC)c(=O)cc1[C@@H](NC(C)=O)CC2 (stereo partly shown) | 10.3 µM |
| COC1=C(C(=O)C2CC2)C(c2c3c(c(OC)c(OC)c2OC)-c2ccc(OC)c(=O)cc2[C@H](NC(C)=O)CC3)NC(=O)N1 (stereo partly shown) | > 50 µM |
| CCOC(=O)C1=C(OCC)NC(=O)NC1c1c2c(c(OC)c(OC)c1OC)-c1ccc(OC)c(=O)cc1[C@H](NC(C)=O)CC2 (stereo partly shown) | 35.2 µM |
| CCOC(=O)C1=C(C(Cl)(Cl)Cl)NC(=O)NC1c1c2c(c(OC)c(OC)c1OC)-c1ccc(OC)c(=O)cc1[C@H](NC(C)=O)CC2 (stereo partly shown) | > 50 µM |
| CCOC(=O)C1=C(C(F)(F)C(F)(F)F)NC(=O)NC1c1c2c(c(OC)c(OC)c1OC)-c1ccc(OC)c(=O)cc1[C@H](NC(C)=O)CC2 (stereo partly shown) | 28.3 µM |
| CCOC(=O)C1=C(C)NC(=N)NC1c1c2c(c(OC)c(OC)c1OC)-c1ccc(OC)c(=O)cc1[C@H](NC(C)=O)CC2 (stereo partly shown) | > 50 µM |
| CCOC(=O)C1=C(C)NC(=S)NC1c1c2c(c(OC)c(OC)c1OC)-c1ccc(OC)c(=O)cc1[C@H](NC(C)=O)CC2 (stereo partly shown) | > 50 µM |
| COc1c(OC)c2c(c(C3NC(=O)NC(C)=C3C(=O)Oc3ccccc3)c1OC)CC[C@@H](NC(C)=O)c1cc(=O)c(OC)ccc1-2 (stereo partly shown) | > 50 µM |
